Each entry below carries its reported Kd.
Molecular target: T1, human CD86-murine Ig fusion protein (human)
T1 construct: Bought (Ancell #509-820); also called hCD86-mIg
T1 chain: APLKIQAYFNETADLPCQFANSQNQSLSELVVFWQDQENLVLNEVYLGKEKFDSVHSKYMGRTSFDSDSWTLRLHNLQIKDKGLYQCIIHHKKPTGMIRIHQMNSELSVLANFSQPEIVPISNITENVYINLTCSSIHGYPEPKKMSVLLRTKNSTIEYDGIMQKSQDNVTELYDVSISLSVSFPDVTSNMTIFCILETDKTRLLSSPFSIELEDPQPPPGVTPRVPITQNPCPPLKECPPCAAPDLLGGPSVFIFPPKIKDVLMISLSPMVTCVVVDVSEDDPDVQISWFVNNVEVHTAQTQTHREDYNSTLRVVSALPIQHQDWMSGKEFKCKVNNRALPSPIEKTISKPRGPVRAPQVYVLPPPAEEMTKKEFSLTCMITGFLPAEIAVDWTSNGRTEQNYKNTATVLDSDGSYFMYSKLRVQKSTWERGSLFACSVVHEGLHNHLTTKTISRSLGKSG
Test: SPR Biacore, hCD86-mIg captured

>>> result("D2-IgG2 (Fc fusion) MHVAQPAVVLASSRGIASFVCEYESPHKANEIRVTVLRQANSQVTEVCAMTYMKGDELTFLDDPFCTGTFSGNQVNLTIQGLRAADTGLYICKVELMYPPPYYLGMGNGTQIYVIDPEPCPDSDERKCCVECPPCPAPPVAGPSVFLFPPKPKDTLMISRTPEVTCVVVDVSHEDPEVQFNWYVDGVEVHNAKTKPREEQFNSTFRVVSVLTVVHQDWLNGKEYKCKVSNKGLPAPIEKTISKTKGQPREPQVYTLPPSREEMTKNQVSLTCLVKGFYPSDIAVEWESNGQPENNYKTTPPMLDSDGSFFLYSKLTVDKSRWQQGNVFSCSVMHEALHNHYTQKSLSLSPG")
"0.131 to 0.262 nM"

Please turn your attention to the following entry.
Quick check: Kd of D3-70-IgG2 (Fc fusion) MHVAQPAVVLASSRGIASFVCEYESPGKANEVRVTVLRQADSQVTEVCAMTYMKGNELTFLDDPSCTGTFSGNQVNLTIQGLRAMDTGLYICKVELMYPPPYYEGIGNGTQIYVIDPEPCPDSDERKCCVECPPCPAPPVAGPSVFLFPPKPKDTLMISRTPEVTCVVVDVSHEDPEVQFNWYVDGVEVHNAKTKPREEQFNSTFRVVSVLTVVHQDWLNGKEYKCKVSNKGLPAPIEKTISKTKGQPREPQVYTLPPSREEMTKNQVSLTCLVKGFYPSDIAVEWESNGQPENNYKTTPPMLDSDGSFFLYSKLTVDKSRWQQGNVFSCSVMHEALHNHYTQKSLSLSPG ?
< 0.131 nM
